Molecular target: hD2R (Homo sapiens, UniProt P14416)
Sequence (P14416 whole entry): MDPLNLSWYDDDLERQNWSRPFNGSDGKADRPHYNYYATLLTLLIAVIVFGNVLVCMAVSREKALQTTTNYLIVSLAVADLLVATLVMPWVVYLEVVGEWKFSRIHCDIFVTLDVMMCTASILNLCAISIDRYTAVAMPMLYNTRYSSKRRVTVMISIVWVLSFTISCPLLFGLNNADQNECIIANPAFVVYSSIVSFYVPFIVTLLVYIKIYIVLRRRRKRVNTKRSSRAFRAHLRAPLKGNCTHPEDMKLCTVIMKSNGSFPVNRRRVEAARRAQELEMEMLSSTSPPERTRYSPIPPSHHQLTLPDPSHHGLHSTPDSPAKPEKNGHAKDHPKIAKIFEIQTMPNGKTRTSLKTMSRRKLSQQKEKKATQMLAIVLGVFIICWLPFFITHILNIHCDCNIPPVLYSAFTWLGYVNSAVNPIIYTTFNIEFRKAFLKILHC
Assay type: cell-based
Reported Metric: effect on ERK1/2 phosphorylation mediated by hD2R, compound alone (agonist mode)

Molecule: CCn1c2ccccc2c2cc(CNCCCCNC(=O)c3ccc(-c4cccnc4)cc3)ccc21 [23j]
Data Value: weak partial agonism
--
Molecule: Cn1c2c(c3ccccc31)CN(CCCCNC(=O)c1cc3ccccc3[nH]1)CC2 [36a]
Data Value: weak partial agonism

###

inhibition at 10 µM: recorded values
Biological target: hD2R (Homo sapiens, UniProt P14416)
Experiment: biochemical
Format: binding
Details: read-out: % inhibition at 10 μmol/L hD2

Compound: CCn1c2ccccc2c2cc(CNCCCNC(=O)c3cc4ccccc4[nH]3)ccc21 [22b]
inhibition at 10 µM (%): 8.1

Compound: Cn1c2c(c3ccccc31)CN(CCCCNC(=O)c1ccnc3ccccc13)CC2 [36e]
inhibition at 10 µM (%): -2

Compound: CCn1c2ccccc2c2cc(CNCCCCNC(=O)c3ccc(-c4ccc(C(C)=O)cc4)cc3)ccc21 [23h]
inhibition at 10 µM (%): 5.2

Compound: CCn1c2ccccc2c2cc(CNCCCCNC(=O)c3cnc4ccccc4c3)ccc21 [23l]
inhibition at 10 µM (%): 9.6

Compound: CCn1c2ccccc2c2cc(CNCCCCNC(=O)c3ccc4[nH]c(=O)[nH]c4c3)ccc21 [23e]
inhibition at 10 µM (%): 1.9

Compound: CCn1c2c(c3ccccc31)CCN(CCCCNC(=O)c1ccc3[nH]c(=O)[nH]c3c1)C2 [42j]
inhibition at 10 µM (%): 48.8

Compound: CCn1c2c(c3ccccc31)CCN(CCCCNC(=O)c1ccc3nc[nH]c3c1)C2 [42f]
inhibition at 10 µM (%): 54.1

Compound: Cn1c2c(c3ccccc31)CN(CCCCNC(=O)c1cc3ccccc3[nH]1)CC2 [36a]
inhibition at 10 µM (%): 20.9

Compound: CCN(CCCCNC(=O)c1cc2ccccc2[nH]1)Cc1ccc2c(c1)c1ccccc1n2CC [31a]
inhibition at 10 µM (%): 88.1

Compound: CCn1c2c(c3ccccc31)CCN(CCCCNC(=O)c1ccc(-c3cccnc3)cc1)C2 [42h]
inhibition at 10 µM (%): 28.9

Compound: Cn1c2c(c3ccccc31)CCN(CCCCNC(=O)c1ccc3[nH]c(=O)[nH]c3c1)C2 [42i]
inhibition at 10 µM (%): 37.6

Compound: Cn1c2c(c3ccccc31)CN(CCCCNC(=O)c1ccc(-c3ccccc3)cc1)CC2 [36f]
inhibition at 10 µM (%): -20.7

Compound: Cn1c2c(c3ccccc31)CCN(CCCCNC(=O)c1cc3ccccc3[nH]1)C2 [42a]
inhibition at 10 µM (%): 9.1

Compound: CCn1c2ccccc2c2cc(CNCCCCNC(=O)c3ccc4[nH]c5ccccc5c4c3)ccc21 [23k]
inhibition at 10 µM (%): 10.6

Compound: CCn1c2ccccc2c2cc(CNCCCCNC(=O)c3ccc4[nH]cnc4c3)ccc21 [23d]
inhibition at 10 µM (%): 2.7

Compound: CCn1c2ccccc2c2cc(CNCCCCNC(=O)c3ccc4[nH]c(=O)oc4c3)ccc21 [23f]
inhibition at 10 µM (%): 5.5

Compound: CCn1c2ccccc2c2cc(CNCCCNC(=O)c3nc4ccccc4[nH]3)ccc21 [22c]
inhibition at 10 µM (%): 22.4

Compound: CCn1c2c(c3ccccc31)CN(CCCCNC(=O)c1cc3ccccc3[nH]1)CC2 [36k]
inhibition at 10 µM (%): 13.2

Compound: Cn1c2c(c3ccccc31)CN(CCCCNC(=O)c1ccc3[nH]c4ccccc4c3c1)CC2 [36h]
inhibition at 10 µM (%): 74.4

Compound: CCN(CCCCNC(=O)c1ccc(-c2cccnc2)cc1)Cc1ccc2c(c1)c1ccccc1n2CC [31b]
inhibition at 10 µM (%): 36.9

Compound: c1ccc2c(c1)[nH]c1ccc(CNCCCn3ccnc3)cc12 [compound 8]
inhibition at 10 µM (%): 33.2

Compound: CCn1c2ccccc2c2cc(CNCCCn3cnc4ccccc43)ccc21 [17d]
inhibition at 10 µM (%): 71.8

Compound: CCn1c2c(c3ccccc31)CCN(CCCCNC(=O)c1cc3ccccc3[nH]1)C2 [42b]
inhibition at 10 µM (%): 17.5

Compound: CCn1c2ccccc2c2cc(CNCCCn3cnc4cncnc43)ccc21 [17e]
inhibition at 10 µM (%): 10.6

Compound: Cn1c2c(c3ccccc31)CCN(CCCCNC(=O)c1ccc(-c3cccnc3)cc1)C2 [42g]
inhibition at 10 µM (%): 37.8

Compound: CCn1c2ccccc2c2cc(CNCCCCNC(=O)c3cc4ccccc4[nH]3)ccc21 [23a]
inhibition at 10 µM (%): 30

Compound: Cn1c2c(c3ccccc31)CN(CCCCNC(=O)c1cnc3ccccc3c1)CC2 [36d]
inhibition at 10 µM (%): 15.6

Compound: CC(C)n1c2ccccc2c2cc(CNCCCn3ccnc3)ccc21 [3c]
inhibition at 10 µM (%): 1.7

Compound: CCCN(CCCCNC(=O)c1cc2ccccc2[nH]1)Cc1ccc2c(c1)c1ccccc1n2CC [31c]
inhibition at 10 µM (%): 89.8

Compound: CCCN(CCCCNC(=O)c1ccc(-c2cccnc2)cc1)Cc1ccc2c(c1)c1ccccc1n2CC [31d]
inhibition at 10 µM (%): 26.8

Compound: Cn1c2c(c3ccccc31)CN(CCCCNC(=O)c1ccc(-c3cccnc3)cc1)CC2 [36g]
inhibition at 10 µM (%): 29.2

Compound: CCCN(CCCCNC(=O)c1cc2ccccn2n1)Cc1ccc2c(c1)c1ccccc1n2CC [31e]
inhibition at 10 µM (%): 18.6

Compound: CCn1c2ccccc2c2cc(CNCCCn3cnc4c(Cl)ncnc43)ccc21 [17f]
inhibition at 10 µM (%): 12.8

Compound: Cn1c2c(c3ccccc31)CN(CCCCNC(=O)c1ccc3[nH]cnc3c1)CC2 [36j]
inhibition at 10 µM (%): 27.7

Compound: CCn1c2ccccc2c2cc(CNCCCCNC(=O)c3ccc(-c4ccccn4)cc3)ccc21 [23i]
inhibition at 10 µM (%): 6.5

Compound: Cn1c2c(c3ccccc31)CN(CCCCNC(=O)c1ccc3[nH]c(=O)[nH]c3c1)CC2 [36i]
inhibition at 10 µM (%): 38.9

Compound: CCn1c2ccccc2c2cc(CNCCCCNC(=O)c3ccc(-c4cccnc4)cc3)ccc21 [23j]
inhibition at 10 µM (%): 12.4

Compound: Cn1c2c(c3ccccc31)CN(CCCCNC(=O)c1cn3nc(Cl)ccc3n1)CC2 [36c]
inhibition at 10 µM (%): 21.1

Compound: Cn1c2c(c3ccccc31)CCN(CCCCNC(=O)c1ccc3nc[nH]c3c1)C2 [42e]
inhibition at 10 µM (%): 49.7

###

Experiment: Pharmacokinetics study in ICR mice
Type: in vivo, mouse
Settings: ICR, mouse, plasma, iv, 3 mg/kg
Reported Metric: Tmax

Compound: CCn1c2ccccc2c2cc(CNCCCCNC(=O)c3ccc(-c4cccnc4)cc3)ccc21 [23j]
Data Value: 4.8 min

###

Target: hD4 (Homo sapiens)
Sequence (P21917 whole entry): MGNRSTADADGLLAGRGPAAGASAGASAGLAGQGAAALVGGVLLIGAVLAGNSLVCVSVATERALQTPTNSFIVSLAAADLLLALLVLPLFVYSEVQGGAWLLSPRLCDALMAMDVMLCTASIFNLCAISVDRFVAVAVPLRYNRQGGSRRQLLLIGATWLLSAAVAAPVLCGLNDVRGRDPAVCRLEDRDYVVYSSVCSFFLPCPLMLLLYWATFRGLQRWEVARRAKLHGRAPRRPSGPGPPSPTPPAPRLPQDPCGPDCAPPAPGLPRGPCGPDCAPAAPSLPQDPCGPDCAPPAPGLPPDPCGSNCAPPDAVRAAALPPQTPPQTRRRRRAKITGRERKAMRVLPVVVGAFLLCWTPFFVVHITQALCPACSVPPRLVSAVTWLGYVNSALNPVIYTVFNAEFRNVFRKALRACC

Compound: CCn1c2ccccc2c2cc(CNCCCCNC(=O)c3ccc(-c4cccnc4)cc3)ccc21 [23j]
Ki: > 10 µM

###

Assay: BBB penetration study in ICR mice
Type: in vivo, mouse
Details: ICR, mouse, brain, iv, 3 mg/kg, Brain concentration at 2.0 h, 3 mg/kg i.v.
Reported Metric: concentration at 2 h (ng/mL)

Compound: CCn1c2ccccc2c2cc(CNCCCCNC(=O)c3ccc(-c4cccnc4)cc3)ccc21 [23j]
Data Value: 11.5

###

Assay: BBB penetration study in ICR mice
Assay type: in vivo, mouse
Settings: ICR, mouse, brain, iv, 3 mg/kg, Brain/plasma ratio at 0.5 h, 3 mg/kg i.v.
Reported Metric: Kp at 0.5 h

Compound: CCn1c2ccccc2c2cc(CNCCCCNC(=O)c3ccc(-c4cccnc4)cc3)ccc21 [23j]
Data Value: 0.55

###

Assay: Pharmacokinetics study in ICR mice
Type: in vivo, mouse
Details: ICR, mouse, plasma, po, 10 mg/kg

Compound: CCn1c2ccccc2c2cc(CNCCCCNC(=O)c3ccc(-c4cccnc4)cc3)ccc21 [23j]
AUC / ng·h/mL: 94.4

###

Target: h5-HT2C (Rattus norvegicus)
Sequence (P08909 33-460): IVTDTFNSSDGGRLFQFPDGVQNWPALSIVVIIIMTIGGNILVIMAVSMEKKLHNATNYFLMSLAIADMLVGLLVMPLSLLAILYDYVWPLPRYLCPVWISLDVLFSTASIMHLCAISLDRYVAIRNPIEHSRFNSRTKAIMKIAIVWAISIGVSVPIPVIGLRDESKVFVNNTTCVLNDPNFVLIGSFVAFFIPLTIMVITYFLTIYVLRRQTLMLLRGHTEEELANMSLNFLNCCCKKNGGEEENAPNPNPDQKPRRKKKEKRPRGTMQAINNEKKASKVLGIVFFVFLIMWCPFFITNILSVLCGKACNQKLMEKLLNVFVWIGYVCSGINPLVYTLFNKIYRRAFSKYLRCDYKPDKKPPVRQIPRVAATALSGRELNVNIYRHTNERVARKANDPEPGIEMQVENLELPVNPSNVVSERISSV
pKi: −log10 of the molar value.

Molecule: CCn1c2ccccc2c2cc(CNCCCCNC(=O)c3ccc(-c4cccnc4)cc3)ccc21 [23j]
pKi: 5.65

###

Target: hH1 (Cavia porcellus, UniProt P31389)
Sequence (P31389 whole entry): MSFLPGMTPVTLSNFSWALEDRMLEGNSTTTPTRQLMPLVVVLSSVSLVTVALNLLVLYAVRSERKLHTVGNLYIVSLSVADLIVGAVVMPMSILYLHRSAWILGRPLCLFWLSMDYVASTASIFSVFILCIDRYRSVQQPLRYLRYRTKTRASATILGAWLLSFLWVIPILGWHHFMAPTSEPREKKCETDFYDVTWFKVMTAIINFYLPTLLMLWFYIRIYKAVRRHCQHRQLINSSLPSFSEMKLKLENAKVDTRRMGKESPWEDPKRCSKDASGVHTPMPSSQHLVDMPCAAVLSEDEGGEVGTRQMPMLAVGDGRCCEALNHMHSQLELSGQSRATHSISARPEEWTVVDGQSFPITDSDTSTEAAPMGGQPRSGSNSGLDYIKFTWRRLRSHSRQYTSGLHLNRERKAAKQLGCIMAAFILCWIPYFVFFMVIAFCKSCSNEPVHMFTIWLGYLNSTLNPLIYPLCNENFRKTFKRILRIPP
Reported Metric: Ki (µM)

Molecule: CCn1c2ccccc2c2cc(CNCCCCNC(=O)c3ccc(-c4cccnc4)cc3)ccc21 [23j]
Reported Metric: Ki
Unit Label: µM
Data Value: 5.2

###

Assay: Pharmacokinetics study in ICR mice
Type: in vivo, mouse
Details: ICR, mouse, plasma, iv, 3 mg/kg

Compound: CCn1c2ccccc2c2cc(CNCCCCNC(=O)c3ccc(-c4cccnc4)cc3)ccc21 [23j]
clearance / mL/min/kg: 153

This collection of values is drawn from paper PMC10638516.
